Reference for the values: patent US20240382471A1

# tgt: GLP1R (Homo sapiens)
# Sequence (P43220 24-463): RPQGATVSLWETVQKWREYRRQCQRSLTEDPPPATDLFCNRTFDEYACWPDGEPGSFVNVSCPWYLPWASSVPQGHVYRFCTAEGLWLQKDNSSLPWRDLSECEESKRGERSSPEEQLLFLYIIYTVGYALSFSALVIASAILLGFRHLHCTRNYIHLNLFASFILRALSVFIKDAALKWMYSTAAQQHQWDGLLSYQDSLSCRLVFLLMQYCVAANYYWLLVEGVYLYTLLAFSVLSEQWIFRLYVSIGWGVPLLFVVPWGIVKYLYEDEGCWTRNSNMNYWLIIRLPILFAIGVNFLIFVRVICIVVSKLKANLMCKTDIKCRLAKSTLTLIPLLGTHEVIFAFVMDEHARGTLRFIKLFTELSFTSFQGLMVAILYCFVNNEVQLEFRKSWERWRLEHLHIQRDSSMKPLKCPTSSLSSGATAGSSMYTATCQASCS
# assay-details: GLP1R/CRE-Luc luciferase reporter gene assay (agonist activity)
# Type: cell-based
# Parameters: host or cells: HKE293 (so in the source)
# condition-summary: HKE293-Human GLP1R/CRE-luc cells, 5 h at 37° C., read-out: EC50 (nM) Assay 2
# Procedure: GLP1R-mediated agonist activity was determined with a cell-based functional assay utilizing a britelite plus luciferase reporter gene assay system. The stable cell line overexpress GLP1R and target response element. The stimulation with GLP1R agonist results in the upregulation of intracellular cAMP, which regulate the activities of cAMP-response element binding protein (CREB) and CREB-Luc. […] • 3.1% Activity is calculated as follow: […]
property-name: EC50 (nM)

Consider the reported EC50 for these compounds:
COc1cc(C#N)ccc1COc1cccc(C23CCN(Cc4nc5c(Cl)cc(C(=O)O)cc5n4C[C@@H]4CCO4)CC2C3)n1 (stereo partly drawn)	0.95
COc1cc(C#N)ccc1COc1cccc(C23CCN(Cc4nc5c(OC(F)(F)F)cc(C(=O)O)cc5n4C[C@@H]4CCO4)CC2C3)n1 (stereo partly drawn)	14.4

P = CCOc1cc(C(=O)O)cc2c1nc(CN1CCC3(c4nccc(OCc5ccc(C#N)cc5OC)n4)CC3C1)n2C[C@@H]1CCO1 (stereo partly drawn)
Q = CCn1cncc1Cn1c(CN2CCC3(c4nccc(OCc5ccc(C#N)cc5OC)n4)CC3C2)nc2c(OC)cc(C(=O)O)cc21 (stereo not drawn)
R = COc1cc(C#N)ccc1COc1ccnc(C23CCN(Cc4nc5c(OC)cc(C(=O)O)cc5n4C[C@@H]4CCO4)CC2C3)n1 (stereo partly drawn) [Compound 1-38]
Problem: Arrange these compounds by their EC50, starting with the largest number. Returns: the labels arranged in the requested order.
Solution: R, P, Q
